Listed here are compounds together with their documented IC50.
# testTarget: DNA-binding transcriptional activator DevR/DosR (Mycobacterium tuberculosis)
# Sequence (P9WMF9 whole entry): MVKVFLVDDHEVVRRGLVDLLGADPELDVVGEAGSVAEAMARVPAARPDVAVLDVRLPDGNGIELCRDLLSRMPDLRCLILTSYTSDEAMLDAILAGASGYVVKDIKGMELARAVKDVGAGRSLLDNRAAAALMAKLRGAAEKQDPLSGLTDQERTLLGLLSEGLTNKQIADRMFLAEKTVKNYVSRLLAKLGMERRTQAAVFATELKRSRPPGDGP
# protocolDescription: Inhibition of DevR region-dependent Rv3134c promoter activity in Mycobacterium tuberculosis H37Rv after 48 hrs by GFP reporter gene assay
# experimentalContext: read-out: IC50 (converted)

- smilesStr: "C=CCc1cc(/C=C2\\NC(=O)N(c3ccccc3F)C2=O)cc(OCC)c1O"
  IC50: "311 µM"
- smilesStr: "COc1cc(NC(=O)c2cc3ccccc3o2)ccc1NC(=O)c1ccccc1Cl"
  IC50: "300 µM"
- smilesStr: "COc1cc(NC(=O)c2ccc(-c3cc4ccccc4oc3=O)cc2)ccc1NC(=O)c1ccccc1Cl"
  IC50: "125 µM"
- smilesStr: "COc1cc(NC(=O)CCc2ccc(OCc3ccc(Cl)cc3)c(OC)c2)c(OC)cc1Cl"
  IC50: "249 µM"
